Overview of reported melting point across a group of compounds:

Here's what some known entries look like.
[
  {
    "compound": "CCc1cccc(NC(=O)C(C#N)=C(C)N(C)C)c1",
    "melting point": "98 to 100 °C"
  },
  {
    "compound": "N#CNC(=Nc1ccncc1)NCCSc1ccccc1",
    "melting point": "161 to 163 °C"
  },
  {
    "compound": "CCCc1c(SCCCOc2ccc(C(C)=O)c(OCCCC(=O)OCC)c2CCC)ccc(C(C)=O)c1O",
    "melting point": "65 to 66 °C"
  },
  {
    "compound": "OC1(c2ccc(F)cc2)CCN(CCCc2noc3cc(F)ccc23)CC1",
    "melting point": "100 to 101 °C"
  },
  {
    "compound": "CC1=C(C(=O)OCc2ccccc2)C(c2cccc(Cl)c2Cl)C(C(=O)OCc2ccccc2)=C(C)N1",
    "melting point": "131 to 132 °C"
  }
]

Kindly note the recorded melting point for COc1cc2cc(C(=O)N3CC(COS(C)(=O)=O)c4c3cc([N+](=O)[O-])c3ccccc43)[nH]c2c(OC)c1OC (configuration not stated) , which is 214 °C

The compound listed as CCCCNC(=O)c1ccc(S(=O)(=O)NCCCC)o1 has a reported melting point of 69.4 °C
